test system: Antibody 9 (clone F4P1A3 from EMD Biosciences); assay: Cross reactivity on anti-cortisol antibody microarray, antibody 9; assay type: binding; conditions: from slopes of ([apparent cortisol] vs [cross reactant])
metric name: % cross reactivity, antibody 9 (%)
Write the number in % without appending the unit.

Guide cases for % cross reactivity, antibody 9, answers given:
C[C@]12C=CC(=O)C=C1CC[C@@H]1[C@@H]2C(=O)C[C@@]2(C)[C@H]1CC[C@]2(O)C(=O)CO [SYN-2, Prednisone] = 26
C[C@H]1C[C@@H]2[C@H]([C@@H](O)C[C@@]3(C)[C@H]2CC[C@]3(O)C(=O)CO)[C@@]2(C)C=CC(=O)C=C12 [SYN-1, 6-a-methyl prednisolone] = 2
C[C@]12C=CC(=O)C=C1CC[C@@H]1[C@@H]2[C@@H](O)C[C@@]2(C)[C@H]1CC[C@]2(O)C(=O)CO [SYN-7, Prednisolone] = 37

Consider the record given below.
Give % cross reactivity, antibody 9 for C[C@]12CCC(=O)C=C1CC[C@@H]1[C@@H]2C(=O)C[C@@]2(C)[C@H]1CC[C@]2(O)C(=O)CO [SYN-6, Cortisone]
15
